Test system D(3) dopamine receptor (Homo sapiens, UniProt P35462), pKi listed for each of the compounds.
pKi: −log10 of the molar value.

given_smiles	pKi
COc1ccccc1C=CC(=O)N[C@H]1CC[C@H](CCN2CCc3ccc(OS(C)(=O)=O)cc3CC2)CC1	8.89
CS(=O)(=O)c1ccc2c(c1)CCN(CC[C@H]1CC[C@H](NC(=O)C=Cc3ccccc3F)CC1)CC2	8.89
CS(=O)(=O)Oc1ccc2c(c1)CCN(CC[C@H]1CC[C@H](NC(=O)C=Cc3ccccc3F)CC1)CC2	8.89
